Each entry below carries its recorded Colchicine displacement protein:drug 1:10 (without esterase).
test system: colchicine binding site on tubulin; assay: Competition for the colchicine binding site on tubulin; settings: % of 3H-colchicine bound; without esterase
The response must be a number in % with no trailing unit.

{"molecule": "COc1ccc(C=Cc2cc(OC)c(OC)c(OC)c2)cc1OC(=O)C(C)NC(=O)OC(C)(C)C (stereo not shown) [Compound 39]", "test.result": 77}
{"molecule": "COc1ccc(C=Cc2cc(OC)c(OC)c(OC)c2)cc1OC(=O)C(CC(C)C)NC(=O)OC(C)(C)C (stereo not shown) [Compound 38]", "test.result": 72}
{"molecule": "CCC(C)C(NC(=O)OC(C)(C)C)C(=O)Oc1cc(C=Cc2cc(OC)c(OC)c(OC)c2)ccc1OC (stereo not shown) [Compound 34]", "test.result": 65}

Input line: Need Colchicine displacement protein:drug 1:10 (without esterase), item COc1ccc(C=Cc2cc(OC)c(OC)c(OC)c2)cc1OC(=O)C(CCSC)NC(=O)OC(C)(C)C (stereo not shown) [Compound 37]
Output line: 88

====

Each entry below carries its recorded Colchicine displacement protein:drug 1:10 (without esterase).
Test system: colchicine binding site on tubulin
Test: Competition for the colchicine binding site on tubulin
Details: % of 3H-colchicine bound; without esterase
Procedure: (2) Competition for the colchicine binding site on tubulin. The figure quoted represents the % of ^3H-colchicine bound following co-incubation of test compound and ^3H-cochicine with isolated tubulin. […] Animals (n=5) were trated either with 5 daily injections and tumour size measured with time following treatment. • (7) The pharmacokinetic profile of agents was determined in mice following injection with drug. […]
The response must be a number in % with no trailing unit.

{"compound": "COc1ccc(C=Cc2cc(OC)c(OC)c(OC)c2)cc1OC(=O)C(Cc1ccccc1)NC(=O)OC(C)(C)C (stereo not shown)", "units.of.measure": "%", "test.result": 92}
{"compound": "COc1ccc(/C=C\\c2cc(OC)c(OC)c(OC)c2)cc1OC(=O)CNC(=O)OC(C)(C)C", "units.of.measure": "%", "test.result": 65}
{"compound": "COc1ccc(C=Cc2cc(OC)c(OC)c(OC)c2)cc1OC(=O)C1CCCN1C(=O)OC(C)(C)C (stereo not shown)", "units.of.measure": "%", "test.result": 78}

Input line: Need Colchicine displacement protein:drug 1:10 (without esterase), item COc1ccc(/C=C\c2cc(OC)c(OC)c(OC)c2)cc1OC(=O)C(Cc1c[nH]cn1)NC(=O)OC(C)(C)C (stereo not shown)
Output line: 2

====

system: P388 murine leukaemia cell line; assay: Cytotoxicity/growth inhibition assay (MTT), P388; assay type: cell-based; conditions: MTT
measurement.label: pIC50
Note on pIC50: it is the negative log10 of concentration, concentration in mol/L.

Example entries and their recorded answers appear below.
{"molecule": "COc1cc(/C=C\\c2ccc(C)c(F)c2)cc(OC)c1OC [Compound 98-35H]", "system.tested": "P388 murine leukaemia cell line", "measurement.label": "pIC50", "test.result": 8.48}
{"molecule": "COc1ccc(/C=C\\c2cc(OC)c(OC)c(OC)c2)cc1Oc1c(F)c(F)nc(F)c1F [Compound 97-13H]", "system.tested": "P388 murine leukaemia cell line", "measurement.label": "pIC50", "test.result": 7.49}
{"molecule": "COc1ccc(C=Cc2cc(OC)c(OC)c(OC)c2)cc1OC(=O)c1ccncc1 [Compound 97-07]", "system.tested": "P388 murine leukaemia cell line", "measurement.label": "pIC50", "test.result": 8.64}
{"molecule": "COc1ccc(/C=C/c2ccc(C)c(C)c2)cc1F", "system.tested": "P388 murine leukaemia cell line", "measurement.label": "pIC50", "test.result": 4.44}
{"molecule": "COc1ccc(/C=C\\c2cc(OC)c(OC)c(OC)c2)cc1OC [Compound 99-03H]", "system.tested": "P388 murine leukaemia cell line", "measurement.label": "pIC50", "test.result": 6.72}

Input line: Need pIC50, item `Cc1ccc(/C=C/c2ccc(C)c(F)c2)cc1C`
Output line: 4.40

Input line: Need pIC50, item `COc1cc(/C=C/c2ccc(C)c(C)c2)cc(OC)c1OC`
Output line: 4.70

====

tested on: K562; assay: IC50 of aliquots after ex situ irradiation in a photochemical reactor; details: read-out: IC50 K562; ex situ irradiation in benzene, 400W Hg lamp, 20. mins as printed (Table 8)
measurement.label: pIC50
Note on pIC50: it is the negative log10 of concentration, concentration in mol/L.

Input line: Need pIC50, item `COC(=O)CCCOc1cc([N+](=O)[O-])c(COc2cc(/C=C/c3cc(OC)c(OC)c(OC)c3)ccc2OC)cc1OC`
Output line: 7.23

====

test system: K562 cells; assay: In situ ultra violet irradiation of dosed K562 cells, IC50; format: cell-based, human; settings: in situ UV 20 mins (Table 9); read-out: IC50 K562 (nm)
measurement.label: IC50 (nM)
The response must be a number in nM with no trailing unit.

Input line: Need IC50, item COC(=O)CCCOc1cc([N+](=O)[O-])c(COc2cc(/C=C/c3cc(OC)c(OC)c(OC)c3)ccc2OC)cc1OC [Compound E-8]
Output line: 2

====

Each entry below carries its recorded Colchicine displacement protein:drug 1:10 (with esterase).
system: colchicine binding site on tubulin; assay: Competition for the colchicine binding site on tubulin; conditions: % of 3H-colchicine bound; with porcine liver esterase
Could you give the number and then its unit, please?

Example entries and their recorded answers appear below.
{"molecule": "COc1ccc(/C=C\\c2cc(OC)c(OC)c(OC)c2)cc1OC(=O)CNC(=O)OC(C)(C)C", "test.result": "4%"}
{"molecule": "COc1ccc(C=Cc2cc(OC)c(OC)c(OC)c2)cc1OC(=O)C(C)NC(=O)OC(C)(C)C (stereo not drawn)", "test.result": "2%"}
{"molecule": "COc1ccc(C=Cc2cc(OC)c(OC)c(OC)c2)cc1OC(=O)C(CCSC)NC(=O)OC(C)(C)C (stereo not drawn)", "test.result": "2%"}
{"molecule": "COc1ccc(/C=C\\c2cc(OC)c(OC)c(OC)c2)cc1OC(=O)C(Cc1c[nH]cn1)NC(=O)OC(C)(C)C (stereo not drawn)", "test.result": "4%"}
{"molecule": "COc1ccc(/C=C\\c2cc(OC)c(OC)c(OC)c2)cc1OC(=O)[C@@H](CCSC)NC(=O)OC(C)(C)C", "test.result": "2%"}
{"molecule": "COc1ccc(C=Cc2cc(OC)c(OC)c(OC)c2)cc1OC(=O)C1CCCN1C(=O)OC(C)(C)C (stereo not drawn)", "test.result": "2%"}

Input line: Need Colchicine displacement protein:drug 1:10 (with esterase), item `COc1ccc(/C=C\c2cc(OC)c(OC)c(OC)c2)cc1OC(=O)[C@@H](Cc1c[nH]c2ccccc12)NC(=O)OC(C)(C)C`
Output line: 2%

Input line: Need Colchicine displacement protein:drug 1:10 (with esterase), item CCC(C)C(NC(=O)OC(C)(C)C)C(=O)Oc1cc(C=Cc2cc(OC)c(OC)c(OC)c2)ccc1OC (stereo not drawn)
Output line: 2%

Input line: Need Colchicine displacement protein:drug 1:10 (with esterase), item COc1ccc(C=Cc2cc(OC)c(OC)c(OC)c2)cc1OC(=O)C(Cc1ccccc1)NC(=O)OC(C)(C)C (stereo not drawn)
Output line: 2%

====

Each entry below carries its recorded pIC50.
test system: K562 human myelogeneous leukaemia cell line; assay: Cytotoxicity/growth inhibition assay (MTT), K562; type: cell-based; details: MTT; read-out: K562 IC50
Note on pIC50: it is the negative log10 of concentration, concentration in mol/L.

{"compound": "COc1ccc(/C=C\\c2cc(OC)c(OC)c(OC)c2)cc1OC [Compound 99-03H]", "pIC50": 7.22}
{"compound": "COc1ccc(/C=C/c2cc(O)c(OC)c(OC)c2)cc1F [Compound 243]", "pIC50": 5.30}
{"compound": "COc1ccc(/C=C/c2ccc(C)c(C)c2)cc1[N+](=O)[O-] [Compound 140]", "pIC50": 4.62}
{"compound": "COc1cc(/C=C/c2ccc(C)c(C)c2)cc(OC)c1OC [Compound 104]", "pIC50": 4.45}
{"compound": "COc1ccc(/C=C\\c2cc(C)c(C)c(C)c2)cc1O [Compound 133]", "pIC50": 7.70}

// next entry
Input line: Need pIC50, item CCOc1cc(/C=C/c2ccc(OC)c(O)c2)cc(OCC)c1OCC [Compound 254]
Output line: 6.70

====

tested on: K562; assay: IC50 of aliquots after ex situ irradiation in a photochemical reactor; details: read-out: IC50 K562; ex situ irradiation in benzene, 400W Hg lamp, 17.5 mins (Table 8)
measurement.label: IC50 (nM)
The response must be a number in nM with no trailing unit.

Input line: Need IC50, item COC(=O)CCCOc1cc([N+](=O)[O-])c(COc2cc(/C=C/c3cc(OC)c(OC)c(OC)c3)ccc2OC)cc1OC [Compound E-8]
Output line: 4
